For each of the compounds below, state its TGI.
# Test system: SW-620 colon
# assay details: NCI tumour cell line growth inhibition, 48 h

Query: State, in one line, measured TGI of COc1cc2c(c(O)c1C)C(=O)C(Cl)=CC2=O
Reply: 8.29 µM

Query: Return the recorded TGI value; entry: NS(=O)(=O)c1ccc(-n2nc(-c3ccc(Br)cc3)ccc2=O)cc1
Reply: > 10 µM

Query: Give TGI for OCc1ccccc1C1CSCSC1
Reply: > 100 µM

Query: Read the entry O=C(O)Cc1ccc2nc(COC(=O)c3ccccc3)sc2c1 and write its reported TGI.
Reply: > 100 µM

Query: Return TGI (reported value) for this compound: CC1=C(CCCOC(=O)NCCCl)C2=C(C)C3(CC3)[C@@](C)(O)C(=O)C2=C1
Reply: > 100 µM

Query: Give the reported value of TGI for this record: C=C1CC(OC)(C(O)C(=O)N[C@H]2OCO[C@H]3C2O[C@H](C[C@@H](COC)OC)C(C)(C)C3OC)O[C@H](C)[C@@H]1C (some centres not stated)
Reply: 48.2 µM

Query: Please report TGI for the following compound: CCC1CCC2CCCC(C)N12 (configuration not stated)
Reply: > 100 µM

Query: Return value of TGI for input Cn1c(-c2nonc2N)nc2cnccc21 , no commentary.
Reply: > 25 µM

Query: Indicate the recorded TGI value for this compound: Nc1ncnc2c1ncn2C(=O)NC12CC3CC(CC(C3)C1)C2
Reply: > 100 µM

Query: Give the reported TGI for this compound. COc1cc2c(c(OC)c1OC)-c1ccc(NCc3ccccc3)c(=O)cc1[C@@H](NC(C)=O)CC2
Reply: > 100 µM

Query: Answer with the recorded TGI for the compound listed here: Cc1cc(C)nc(NS(=O)(=O)c2ccc(NC(=O)c3cccc4c(=O)c5ccccc5[nH]c34)cc2)n1
Reply: 55.5 µM

Query: In one line, give reported TGI of the entry COc1cc([C@@H]2c3cc4c(cc3C[C@H]3COC(=O)[C@@H]32)OCO4)cc(OC)c1OC .
Reply: > 50 µM

Query: Name the recorded TGI of the item COC1C=CC23c4cc5c(cc4C(O)OC2CN(C)C3C1)OCO5 (configuration not stated) in your answer.
Reply: 11.6 µM

Query: Please supply the value of reported TGI for the item c1ccc(-c2nnc(-c3nn(-c4ccccc4)c4nc5ccccc5nc34)o2)cc1
Reply: > 100 µM

Query: For N#Cc1c2c(c(Nc3ccc(F)cc3)n3c1nc1ccccc13)CCC2 , write its TGI.
Reply: 5.71 µM

Query: Kindly indicate its recorded TGI. Item: CC(=O)Nc1ccc(Cl)c(Cl)c1
Reply: > 100 µM

Query: For the compound CN(C)c1ccc(/C(Br)=C2\OC(=O)c3ccccc32)cc1 , give its measured TGI value.
Reply: > 100 µM

Query: Provide TGI value for the following compound: O=C1CSC(N2CCN(c3cccc(Cl)c3)CC2)=N1
Reply: > 100 µM

Query: For C[C@@H]1Cc2c([nH]c3ccccc23)[C@@H](c2c(F)cc(/C=C/C(=O)O)cc2F)N1CC(C)(C)F , write its TGI.
Reply: 29 µM

Query: Recall and state the measured TGI for Cc1cccc(N(CCC#N)S(=O)(=O)c2ccccc2)c1 .
Reply: > 100 µM

Query: For the compound COc1ccc(-n2cc(-c3ccc(OC)c(OC)c3)[nH]c2=S)cc1Cl , report TGI.
Reply: > 100 µM

Query: Return reported TGI. Input compound: O=C1CC(c2ccc([N+](=O)[O-])cc2)C2(C(=O)NC(=S)NC2=O)C(c2ccc([N+](=O)[O-])cc2)C1 (configuration not stated)
Reply: > 100 µM
